# subjectOfTest: Rhesus PDE2A3 (Macaca mulatta)
# Sequence (B3VTJ2 1-941): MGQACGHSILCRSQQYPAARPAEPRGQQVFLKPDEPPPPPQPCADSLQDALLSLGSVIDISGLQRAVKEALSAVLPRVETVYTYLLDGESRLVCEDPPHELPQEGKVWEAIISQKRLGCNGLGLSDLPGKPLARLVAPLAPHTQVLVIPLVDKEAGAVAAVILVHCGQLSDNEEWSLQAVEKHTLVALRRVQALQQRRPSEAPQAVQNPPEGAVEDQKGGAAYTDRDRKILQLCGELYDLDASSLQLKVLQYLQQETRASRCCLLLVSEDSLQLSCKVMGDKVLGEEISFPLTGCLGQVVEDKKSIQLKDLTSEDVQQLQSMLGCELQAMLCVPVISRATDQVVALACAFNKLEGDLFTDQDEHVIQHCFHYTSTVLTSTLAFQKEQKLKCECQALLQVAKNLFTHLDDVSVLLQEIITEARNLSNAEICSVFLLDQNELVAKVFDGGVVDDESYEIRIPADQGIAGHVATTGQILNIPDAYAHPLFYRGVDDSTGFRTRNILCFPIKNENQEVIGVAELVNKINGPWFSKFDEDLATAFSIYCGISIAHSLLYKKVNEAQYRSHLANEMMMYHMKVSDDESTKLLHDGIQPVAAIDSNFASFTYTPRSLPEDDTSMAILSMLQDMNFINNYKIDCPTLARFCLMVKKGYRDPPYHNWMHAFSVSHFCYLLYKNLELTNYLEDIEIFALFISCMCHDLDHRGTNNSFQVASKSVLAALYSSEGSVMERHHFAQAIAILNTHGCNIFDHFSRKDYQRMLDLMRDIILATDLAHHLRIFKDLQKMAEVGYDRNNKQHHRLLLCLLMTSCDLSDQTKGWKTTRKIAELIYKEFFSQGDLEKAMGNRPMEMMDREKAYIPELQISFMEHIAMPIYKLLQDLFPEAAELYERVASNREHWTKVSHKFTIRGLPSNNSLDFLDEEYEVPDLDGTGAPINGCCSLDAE
# protocolSummary: PDE2 fluorescence polarization (IMAP FP) inhibition assay, rhesus enzyme
# Assay type: biochemical, rhesus macaque
# conditionLabel: Rhesus PDE2, Lab B; read-out: Rhesus PDE2 Ki (nM) - Lab B
# Procedure: The activity of the compounds in accordance with the present invention as PDE2 inhibitors may be readily determined using a fluorescence polarization (FP) methodology (Huang, W., et al., J. Biomol Screen, 2002, 7: 215). In a typical experiment the PDE2 inhibitory activity of the compounds of the present invention was determined in accordance with the following experimental method. […] 0% of inhibition is determined by using DMSO (1% final concentrations). […]
measuredProperty: Ki (nM)

>  <smilesString>
CC1([C@@H](NC(=O)c2cc(=O)[nH]c(C3CC3)n2)c2ccc(S(F)(F)(F)(F)F)cc2)CC1

>  <unitsLabel>
nM

>  <Ki>
3.8

$$$$

1 = Cc1nc(C(=O)N[C@@H](c2ccc(C(C)C)cc2)C2(C)CC2)cc(=O)[nH]1
2 = O=C(NC1(c2ccc(C(F)(F)F)cc2)COC1)c1cc(=O)[nH]c(-c2ccccc2)n1
API: POST /compare with 1 and 2 ; response names the item with higher Ki. Reply briefly: the label of your chosen item. 2
(2: 38 nM, 1: 3.7 nM)
